Form field: DC50 (one value per entry).
Molecular target: GSPT1 (Homo sapiens, UniProt P15170+Q96SW2)
Sequence (P15170 whole entry): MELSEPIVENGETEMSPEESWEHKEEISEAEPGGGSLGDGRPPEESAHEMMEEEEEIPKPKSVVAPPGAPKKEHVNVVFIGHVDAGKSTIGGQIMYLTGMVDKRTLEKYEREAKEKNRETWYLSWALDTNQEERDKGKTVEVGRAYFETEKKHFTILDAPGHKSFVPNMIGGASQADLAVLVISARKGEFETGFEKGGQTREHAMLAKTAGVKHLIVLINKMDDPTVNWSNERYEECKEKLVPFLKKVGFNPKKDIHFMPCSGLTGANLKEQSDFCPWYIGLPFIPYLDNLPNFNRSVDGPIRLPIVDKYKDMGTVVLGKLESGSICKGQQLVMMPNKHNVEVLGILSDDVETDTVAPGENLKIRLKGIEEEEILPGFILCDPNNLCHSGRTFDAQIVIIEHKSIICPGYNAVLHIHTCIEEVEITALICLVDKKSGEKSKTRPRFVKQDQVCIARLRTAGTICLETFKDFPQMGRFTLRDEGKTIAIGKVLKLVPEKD
Sequence (Q96SW2 whole entry): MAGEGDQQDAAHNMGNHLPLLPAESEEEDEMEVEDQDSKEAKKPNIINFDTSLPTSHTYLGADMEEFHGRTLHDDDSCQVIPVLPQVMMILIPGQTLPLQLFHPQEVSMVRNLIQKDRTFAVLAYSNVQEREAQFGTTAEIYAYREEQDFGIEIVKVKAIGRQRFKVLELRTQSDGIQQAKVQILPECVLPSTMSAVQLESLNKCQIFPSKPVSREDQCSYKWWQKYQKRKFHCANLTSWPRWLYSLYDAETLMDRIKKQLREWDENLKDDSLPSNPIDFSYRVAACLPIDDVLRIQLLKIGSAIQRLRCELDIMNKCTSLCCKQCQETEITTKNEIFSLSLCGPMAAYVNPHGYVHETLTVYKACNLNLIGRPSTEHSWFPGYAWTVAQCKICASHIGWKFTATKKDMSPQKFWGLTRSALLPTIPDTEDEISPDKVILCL
Sequence (Q16531 2-1140 partner limits assumed): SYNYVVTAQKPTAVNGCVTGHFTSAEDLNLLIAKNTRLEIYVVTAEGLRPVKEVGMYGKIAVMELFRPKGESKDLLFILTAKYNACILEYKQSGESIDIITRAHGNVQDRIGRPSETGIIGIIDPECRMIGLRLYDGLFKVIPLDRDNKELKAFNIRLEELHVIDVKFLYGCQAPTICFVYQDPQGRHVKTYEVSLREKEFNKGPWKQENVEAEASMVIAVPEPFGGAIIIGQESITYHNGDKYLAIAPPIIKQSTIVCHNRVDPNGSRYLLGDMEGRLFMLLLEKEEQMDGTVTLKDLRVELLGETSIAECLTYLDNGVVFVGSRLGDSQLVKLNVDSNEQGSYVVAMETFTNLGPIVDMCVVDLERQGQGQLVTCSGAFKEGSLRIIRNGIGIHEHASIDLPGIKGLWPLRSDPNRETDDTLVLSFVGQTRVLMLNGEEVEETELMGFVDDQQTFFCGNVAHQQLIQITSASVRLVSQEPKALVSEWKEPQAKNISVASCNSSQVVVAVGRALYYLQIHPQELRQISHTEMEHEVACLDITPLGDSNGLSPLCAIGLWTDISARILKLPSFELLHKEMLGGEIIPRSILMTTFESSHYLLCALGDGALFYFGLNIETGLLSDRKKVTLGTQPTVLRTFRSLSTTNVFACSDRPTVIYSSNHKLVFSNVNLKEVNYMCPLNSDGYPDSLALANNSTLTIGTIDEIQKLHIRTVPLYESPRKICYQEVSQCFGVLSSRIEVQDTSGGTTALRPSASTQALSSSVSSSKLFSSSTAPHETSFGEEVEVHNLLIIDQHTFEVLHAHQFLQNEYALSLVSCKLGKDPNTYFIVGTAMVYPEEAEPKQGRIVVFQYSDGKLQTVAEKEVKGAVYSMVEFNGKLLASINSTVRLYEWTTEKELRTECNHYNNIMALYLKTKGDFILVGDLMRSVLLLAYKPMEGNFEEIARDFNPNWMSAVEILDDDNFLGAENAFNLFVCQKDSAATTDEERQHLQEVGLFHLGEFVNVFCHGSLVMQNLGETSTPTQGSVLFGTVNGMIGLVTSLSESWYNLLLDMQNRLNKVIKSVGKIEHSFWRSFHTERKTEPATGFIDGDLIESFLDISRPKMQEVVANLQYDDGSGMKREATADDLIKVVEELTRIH
Experiment: Immunofluorescence assay for GSPT1 degradation in CAL-51 cells
Assay type: cell-based
Design: CAL-51 cells were purchased from DSMZ (cat. Number ACC302); endogenous in cells; host or cells: CAL-51 (DSMZ ACC302)
Settings: compound treatment 6 hours, read-out: Code: activity for GSPT1 degradation (DC50)
Experimental Endpoint: DC50

[[record]]
compound = "O=C1CCC(N2Cc3ccc(CNC(=O)Nc4ccccc4C(F)(F)F)cc3C2=O)C(=O)N1 (stereo not shown) [Compound 49]"
system_tested = "GSPT1 (Homo sapiens, UniProt P15170+Q96SW2)"
experimental_endpoint = "DC50"
result = "> 300 nM"

[[record]]
compound = "Cc1c(Cl)cc(NC(=O)NCc2ccc3c(c2)C(=O)N(C2CCC(=O)NC2=O)C3)cc1C12CC1CN(C)C2 (stereo not shown) [Compound 155]"
system_tested = "GSPT1 (Homo sapiens, UniProt P15170+Q96SW2)"
experimental_endpoint = "DC50"
result = "100 to 300 nM"

[[record]]
compound = "Cn1cc(NC(=O)NCc2ccc3c(c2)C(=O)N(C2CCC(=O)NC2=O)C3)cn1 (stereo not shown) [Compound 83]"
system_tested = "GSPT1 (Homo sapiens, UniProt P15170+Q96SW2)"
experimental_endpoint = "DC50"
result = "> 300 nM"

[[record]]
compound = "O=C1CCC(N2Cc3ccc(CNC(=O)Nc4ccccc4)cc3C2=O)C(=O)N1 (stereo not shown) [Compound 1]"
system_tested = "GSPT1 (Homo sapiens, UniProt P15170+Q96SW2)"
experimental_endpoint = "DC50"
result = "> 300 nM"


----------
Listed here are compounds together with their documented DC50.
Biological target: GSPT1 (Homo sapiens, UniProt P15170+Q96SW2)
Assay: Immunofluorescence assay for GSPT1 degradation in CAL-51 cells
Format: cell-based
Set-up: CAL-51 cells were purchased from DSMZ (cat. Number ACC302); endogenous in cells; host or cells: CAL-51 (DSMZ ACC302)
Conditions: compound treatment 6 hours, read-out: Code: activity for GSPT1 degradation (DC50)
Experimental Endpoint: DC50

[[record]]
compound = "O=C1CCC(N2Cc3ccc(CNC(=O)Nc4cccc(C(F)F)c4)cc3C2=O)C(=O)N1 (stereo not shown) [Compound 106]"
experimental_endpoint = "DC50"
result = "100 to 300 nM"

[[record]]
compound = "N#Cc1cccc(NC(=O)NCc2ccc3c(c2)C(=O)N(C2CCC(=O)NC2=O)C3)c1 (stereo not shown) [Compound 73]"
experimental_endpoint = "DC50"
result = "> 300 nM"

[[record]]
compound = "CCOc1ccc(NC(=O)NCc2ccc3c(c2)C(=O)N(C2CCC(=O)NC2=O)C3)cc1 (stereo not shown) [Compound 16]"
experimental_endpoint = "DC50"
result = "> 300 nM"

[[record]]
compound = "Cc1c(Cl)cc(NC(=O)NCc2ccc3c(c2)C(=O)N(C2CCC(=O)NC2=O)C3)cc1CN(C)C (stereo not shown) [Compound 75]"
experimental_endpoint = "DC50"
result = "100 to 300 nM"


----------
Target: GSPT1 (Homo sapiens, UniProt P15170+Q96SW2)
Assay: Immunofluorescence assay for GSPT1 degradation in CAL-51 cells
Format: cell-based
Set-up: CAL-51 cells were purchased from DSMZ (cat. Number ACC302); endogenous in cells; host or cells: CAL-51 (DSMZ ACC302)
Conditions: compound treatment 6 hours, read-out: Code: activity for GSPT1 degradation (DC50)
Experimental Endpoint: DC50

[[record]]
compound = "O=C1CCC(N2Cc3ccc(CNC(=O)Nc4cc(Cl)cc(Cl)c4)cc3C2=O)C(=O)N1 (centres unmarked)"
experimental_endpoint = "DC50"
result = "100 to 300 nM"

[[record]]
compound = "O=C1CCC(N2Cc3ccc(CNC(=O)Nc4cccc(F)c4)cc3C2=O)C(=O)N1 (centres unmarked)"
experimental_endpoint = "DC50"
result = "> 300 nM"

[[record]]
compound = "O=C1CCC(N2Cc3ccc(CNC(=O)NCCc4ccccc4)cc3C2=O)C(=O)N1 (centres unmarked)"
experimental_endpoint = "DC50"
result = "> 300 nM"

[[record]]
compound = "O=C1CCC(N2Cc3ccc(CNC(=O)NCc4ccc(C(F)(F)F)cc4)cc3C2=O)C(=O)N1 (centres unmarked)"
experimental_endpoint = "DC50"
result = "> 300 nM"

[[record]]
compound = "CCc1cccc(NC(=O)NCc2ccc3c(c2)C(=O)N(C2CCC(=O)NC2=O)C3)c1 (centres unmarked)"
experimental_endpoint = "DC50"
result = "100 to 300 nM"

[[record]]
compound = "Cc1c(Cl)cc(NC(=O)NCc2ccc3c(c2)C(=O)N(C2CCC(=O)NC2=O)C3)cc1CN1CCC(N(C)C)CC1 (centres unmarked)"
experimental_endpoint = "DC50"
result = "> 300 nM"

[[record]]
compound = "CC(C)c1ccc(NC(=O)NCc2ccc3c(c2)C(=O)N(C2CCC(=O)NC2=O)C3)cc1 (centres unmarked)"
experimental_endpoint = "DC50"
result = "> 300 nM"

[[record]]
compound = "CC(C)(C)NC(=O)NCc1ccc2c(c1)C(=O)N(C1CCC(=O)NC1=O)C2 (centres unmarked)"
experimental_endpoint = "DC50"
result = "> 300 nM"


----------
Biological target: Full length wild-type cereblon CRBN (Homo sapiens)
pIC50: −log10 of the molar value.
Experimental Endpoint: pIC50

[[record]]
molecule = "O=C1CCC(N2Cc3ccc(CNC(=O)Nc4cccs4)cc3C2=O)C(=O)N1 (stereo not shown)"
readout_number = 6.50

[[record]]
molecule = "Cc1c(Cl)cc(NC(=O)NCc2ccc3c(c2)C(=O)N(C2CCC(=O)NC2=O)C3)cc1CN1CC2CCC(C1)O2 (stereo not shown)"
readout_number = 6.25

[[record]]
molecule = "Cc1cccc(C)c1NC(=O)NCc1ccc2c(c1)C(=O)N(C1CCC(=O)NC1=O)C2 (stereo not shown)"
readout_number = 6.21

[[record]]
molecule = "Cc1ccc(CNC(=O)NCc2ccc3c(c2)C(=O)N(C2CCC(=O)NC2=O)C3)cc1Cl (stereo not shown)"
readout_number = 6.55


----------
Below: a set of entries, each annotated with reported DC50.
Molecular target: GSPT1 (Homo sapiens, UniProt P15170+Q96SW2)
Experiment: Immunofluorescence assay for GSPT1 degradation in CAL-51 cells
Assay type: cell-based
Design: CAL-51 cells were purchased from DSMZ (cat. Number ACC302); endogenous in cells; host or cells: CAL-51 (DSMZ ACC302)
Conditions: compound treatment 6 hours, read-out: Code: activity for GSPT1 degradation (DC50)
Experimental Endpoint: DC50

[[record]]
compound = "Cc1c(CN2CCOCC2)cc(NC(=O)NCc2ccc3c(c2)C(=O)N(C2CCC(=O)NC2=O)C3)cc1OC(F)(F)F (centres unmarked)"
result = "≤ 100 nM"

[[record]]
compound = "Cc1cc(NC(=O)NCc2ccc3c(c2)C(=O)N(C2CCC(=O)NC2=O)C3)sn1 (centres unmarked)"
result = "> 300 nM"

[[record]]
compound = "Cc1c(Cl)cc(NC(=O)NCc2ccc3c(c2)C(=O)N(C2CCC(=O)NC2=O)C3)cc1C=O (centres unmarked)"
result = "> 300 nM"

[[record]]
compound = "Cc1cc(NC(=O)NCc2ccc3c(c2)C(=O)N(C2CCC(=O)NC2=O)C3)cc(CN2CCOCC2)c1C (centres unmarked)"
result = "≤ 100 nM"

[[record]]
compound = "Cc1cccc(NC(=O)NCc2ccc3c(c2)C(=O)N(C2CCC(=O)NC2=O)C3)c1 (centres unmarked)"
result = "> 300 nM"

[[record]]
compound = "COc1ccc(Cl)cc1NC(=O)NCc1ccc2c(c1)C(=O)N(C1CCC(=O)NC1=O)C2 (centres unmarked)"
result = "≤ 100 nM"

[[record]]
compound = "CC(C)(O)c1cccc(NC(=O)NCc2ccc3c(c2)C(=O)N(C2CCC(=O)NC2=O)C3)c1 (centres unmarked)"
result = "> 300 nM"

[[record]]
compound = "CC(C)(C)c1ccc(NC(=O)NCc2ccc3c(c2)C(=O)N(C2CCC(=O)NC2=O)C3)cn1 (centres unmarked)"
result = "≤ 100 nM"

[[record]]
compound = "O=C1CCC(N2Cc3ccc(CNC(=O)Nc4cccs4)cc3C2=O)C(=O)N1 (centres unmarked)"
result = "> 300 nM"

[[record]]
compound = "Cc1ccc(F)cc1NC(=O)NCc1ccc2c(c1)C(=O)N(C1CCC(=O)NC1=O)C2 (centres unmarked)"
result = "> 300 nM"

[[record]]
compound = "Cc1nccn1-c1cccc(NC(=O)NCc2ccc3c(c2)C(=O)N(C2CCC(=O)NC2=O)C3)c1 (centres unmarked)"
result = "> 300 nM"

[[record]]
compound = "O=C1CCC(N2Cc3ccc(CNC(=O)Nc4ccc(Cl)cc4)cc3C2=O)C(=O)N1 (centres unmarked)"
result = "> 300 nM"

[[record]]
compound = "O=C1CCC(N2Cc3ccc(CNC(=O)Nc4cc(F)ccc4F)cc3C2=O)C(=O)N1 (centres unmarked)"
result = "> 300 nM"

[[record]]
compound = "Cc1ccc(NC(=O)NCc2ccc3c(c2)C(=O)N(C2CCC(=O)NC2=O)C3)cc1OC(F)F (centres unmarked)"
result = "> 300 nM"

[[record]]
compound = "Cc1c(Cl)cc(NC(=O)NCc2ccc3c(c2)C(=O)N(C2CCC(=O)NC2=O)C3)cc1CN1CC2(COC2)C1 (centres unmarked)"
result = "100 to 300 nM"

[[record]]
compound = "CC(C)(O)c1ccc(NC(=O)NCc2ccc3c(c2)C(=O)N(C2CCC(=O)NC2=O)C3)cc1 (centres unmarked)"
result = "> 300 nM"

[[record]]
compound = "O=C1CCC(N2Cc3ccc(CNC(=O)Nc4cc(C(F)(F)F)ns4)cc3C2=O)C(=O)N1 (centres unmarked)"
result = "> 300 nM"

[[record]]
compound = "O=C1CCC(N2Cc3ccc(CNC(=O)NC4CCCc5ccccc54)cc3C2=O)C(=O)N1 (centres unmarked)"
result = "> 300 nM"

[[record]]
compound = "Cc1ccc(NC(=O)NCc2ccc3c(c2)C(=O)N(C2CCC(=O)NC2=O)C3)nc1Cl (centres unmarked)"
result = "> 300 nM"

[[record]]
compound = "Cn1ccc(-c2cccc(NC(=O)NCc3ccc4c(c3)C(=O)N(C3CCC(=O)NC3=O)C4)c2)n1 (centres unmarked)"
result = "> 300 nM"

[[record]]
compound = "Cc1cccc(CNC(=O)NCc2ccc3c(c2)C(=O)N(C2CCC(=O)NC2=O)C3)c1 (centres unmarked)"
result = "> 300 nM"

[[record]]
compound = "O=C1CCC(N2Cc3ccc(CNC(=O)Nc4cccnc4)cc3C2=O)C(=O)N1 (centres unmarked)"
result = "> 300 nM"

[[record]]
compound = "O=C1CCC(N2Cc3ccc(CNC(=O)Nc4cn[nH]c4)cc3C2=O)C(=O)N1 (centres unmarked)"
result = "> 300 nM"

[[record]]
compound = "O=C1CCC(N2Cc3ccc(CNC(=O)NC4CCCCC4)cc3C2=O)C(=O)N1 (centres unmarked)"
result = "> 300 nM"

[[record]]
compound = "Cc1cc(C)c(NC(=O)NCc2ccc3c(c2)C(=O)N(C2CCC(=O)NC2=O)C3)c(C)c1Cl (centres unmarked)"
result = "> 300 nM"

[[record]]
compound = "C[C@@H](NC(=O)NCc1ccc2c(c1)C(=O)N(C1CCC(=O)NC1=O)C2)c1ccccc1 (some centres unmarked)"
result = "> 300 nM"

[[record]]
compound = "Cc1c(Cl)cc(NC(=O)NCc2ccc3c(c2)C(=O)N(C2CCC(=O)NC2=O)C3)cc1OCCCN(C)C (centres unmarked)"
result = "> 300 nM"

[[record]]
compound = "COc1cccc(CNC(=O)NCc2ccc3c(c2)C(=O)N(C2CCC(=O)NC2=O)C3)c1 (centres unmarked)"
result = "> 300 nM"

[[record]]
compound = "O=C1CCC(N2Cc3ccc(CNC(=O)Nc4ccc(F)c(F)c4)cc3C2=O)C(=O)N1 (centres unmarked)"
result = "> 300 nM"

